Numbers sourced from paper PMC5440694.

target_or_system: biotinylated HA0 ectodomain of A/Perth/16/2009 (H3N2) (Influenza A virus A/Perth/16/2009 (H3N2), UniProt C6KNH7, strain, biotin on the BirA biotinylation site)
protocol_details: BLI
condition_set: one partner purified
value_kind: binding result

binder	meas_value
C05 Fab variant VEEAGW, in supernatant of transfected 293T cells (Fab, V domains shown, not shown: His6, C-terminal, kept) VH: QVQLQESGGGLVQPGESLRLSCVGSGSSFGESTLSYYAVSWVRQAPGKGLEWLSIINAGGGDIDYADSVEGRFTISRDNSKETLYLQMTNLRVEDTGVYYCAKHMSMQQVEEAGWERADLVGDAFDVWGQGTMVTVSS VL: DIQLTQSPSSLSASVGDRVTLTCQASQDIRKFLNWYQQKPGKGPKLLIYDASNLQRGVPSRFSGGGSGTDFTLIISSLQPEDVGTYYCQQYDGLPFTFGGGTKVVIK	binds
C05 Fab variant VVDAGW, in supernatant of transfected 293T cells (Fab, V domains shown) VH: QVQLQESGGGLVQPGESLRLSCVGSGSSFGESTLSYYAVSWVRQAPGKGLEWLSIINAGGGDIDYADSVEGRFTISRDNSKETLYLQMTNLRVEDTGVYYCAKHMSMQQVVDAGWERADLVGDAFDVWGQGTMVTVSS VL: DIQLTQSPSSLSASVGDRVTLTCQASQDIRKFLNWYQQKPGKGPKLLIYDASNLQRGVPSRFSGGGSGTDFTLIISSLQPEDVGTYYCQQYDGLPFTFGGGTKVVIK	binds
C05 Fab variant VVEAGW, in supernatant of transfected 293T cells (Fab, V domains shown) VH: QVQLQESGGGLVQPGESLRLSCVGSGSSFGESTLSYYAVSWVRQAPGKGLEWLSIINAGGGDIDYADSVEGRFTISRDNSKETLYLQMTNLRVEDTGVYYCAKHMSMQQVVEAGWERADLVGDAFDVWGQGTMVTVSS VL: DIQLTQSPSSLSASVGDRVTLTCQASQDIRKFLNWYQQKPGKGPKLLIYDASNLQRGVPSRFSGGGSGTDFTLIISSLQPEDVGTYYCQQYDGLPFTFGGGTKVVIK	binds
C05 Fab variant VVDSGW, in supernatant of transfected 293T cells (Fab, V domains shown, not shown: His6, C-terminal, kept) VH: QVQLQESGGGLVQPGESLRLSCVGSGSSFGESTLSYYAVSWVRQAPGKGLEWLSIINAGGGDIDYADSVEGRFTISRDNSKETLYLQMTNLRVEDTGVYYCAKHMSMQQVVDSGWERADLVGDAFDVWGQGTMVTVSS VL: DIQLTQSPSSLSASVGDRVTLTCQASQDIRKFLNWYQQKPGKGPKLLIYDASNLQRGVPSRFSGGGSGTDFTLIISSLQPEDVGTYYCQQYDGLPFTFGGGTKVVIK	binds
